Recorded Metric: melting point

Completed entries (count: 8):
>  <Compound>
C#CCSc1nc2c(c(=O)[nH]c(=O)n2C)n1C

>  <Value>
252 to 253 °C

$$$$
>  <Compound>
Cn1c(SCC#CCN2CCCCC2)nc2nc(Cl)nc(SCC#CCN3CCCCC3)c21 [Compound 15b]

>  <Value>
108 to 110 °C

$$$$
>  <Compound>
CCN(CC)CC#CCSc1nc(SCC#CCN(CC)CC)c2c(ncn2C)n1

>  <Value>
77 to 79 °C

$$$$
>  <Compound>
Cn1cnc2nc(SCC#CCN3CCCC3)nc(SCC#CCN3CCCC3)c21

>  <Value>
97 to 99 °C

$$$$
>  <Compound>
Cn1cnc2nc(Cl)nc(SCC#CCN3CCOCC3)c21

>  <Value>
168 to 169 °C

$$$$
>  <Compound>
Cn1c(SCC#CCN2CCCC2)nc2nc(Cl)nc(SCC#CCN3CCCC3)c21 [Compound 15a]

>  <Value>
133 to 135 °C

$$$$
>  <Compound>
Cn1c(SCC#CCN2CCCC2)nc2c1c(=O)[nH]c(=O)n2C [Compound 10a]

>  <Value>
195 to 197 °C

$$$$
>  <Compound>
C#CCSc1nc(Cl)nc2nc(SCC#C)n(C)c12

>  <Value>
161 to 163 °C

$$$$

Kindly consider the entry below.
Name the recorded melting point for CCN(CC)CC#CCSc1nc(Cl)nc2nc(SCC#CCN(CC)CC)n(C)c12 [Compound 15d] . 88 to 90 °C
